tgt: pY641-STAT6 in PBMC (Homo sapiens)
Construct: Cryopreserved Peripheral Blood Mononuclear Cells (PBMC) are from AllCells; host or cells: cryopreserved PBMC
Sequence (P42226 1-847): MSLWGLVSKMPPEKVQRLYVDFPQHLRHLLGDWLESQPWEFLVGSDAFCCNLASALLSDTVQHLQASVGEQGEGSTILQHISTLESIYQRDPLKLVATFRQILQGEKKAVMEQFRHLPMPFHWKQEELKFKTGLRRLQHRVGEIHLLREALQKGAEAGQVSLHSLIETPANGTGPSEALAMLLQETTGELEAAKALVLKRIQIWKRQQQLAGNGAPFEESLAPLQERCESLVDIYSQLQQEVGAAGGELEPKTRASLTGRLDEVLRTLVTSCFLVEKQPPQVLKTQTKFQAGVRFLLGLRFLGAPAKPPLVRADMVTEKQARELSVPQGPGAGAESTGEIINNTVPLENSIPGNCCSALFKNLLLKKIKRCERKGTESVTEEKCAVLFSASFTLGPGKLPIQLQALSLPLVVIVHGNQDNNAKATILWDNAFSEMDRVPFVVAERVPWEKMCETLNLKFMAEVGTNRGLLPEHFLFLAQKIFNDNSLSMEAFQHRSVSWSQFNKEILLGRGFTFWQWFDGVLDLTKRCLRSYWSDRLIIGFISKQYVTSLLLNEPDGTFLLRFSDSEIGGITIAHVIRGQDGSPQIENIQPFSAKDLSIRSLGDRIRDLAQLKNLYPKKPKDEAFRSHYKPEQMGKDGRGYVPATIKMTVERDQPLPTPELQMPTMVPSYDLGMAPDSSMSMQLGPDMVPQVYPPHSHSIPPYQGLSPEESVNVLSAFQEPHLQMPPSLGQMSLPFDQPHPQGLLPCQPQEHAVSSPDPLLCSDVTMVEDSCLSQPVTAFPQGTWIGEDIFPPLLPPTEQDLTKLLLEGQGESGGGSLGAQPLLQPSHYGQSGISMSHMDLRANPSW
experimentalDetails: MSD-pSTAT-PBMC Assay (pSTAT6, IL-4 stimulated)
Format: cell-based
assayConditions: STAT6, PBMC, compound 3 hrs, then 1 ng/mL IL-4 for 10 min; Table 115
pIC50: −log10 of the molar value.
valueKind: pIC50

Example compounds with recorded pIC50:
COCCOC(=O)[C@H](C)NP(=O)(Oc1ccccc1)[C@@H](F)c1ccc2sc(C(=O)N[C@H]3CCC[C@H]4CC[C@@H](C(=O)N5C[C@@H](c6ccccc6)[C@H](C#N)C56CC6)N4C3=O)cc2c1 (stereo partly shown) [Compound 361]	> 7.00
CCCOC(=O)[C@H](C)NP(=O)(Oc1ccccc1)[C@@H](F)c1ccc2sc(C(=O)N[C@H]3CCCC[C@H]4CC[C@@H](C(=O)N5C[C@H](c6cccc(OC(F)F)c6)C(C#N)C56CC6)N4C3=O)cc2c1 (relative stereo) [Compound 338]	> 7.00
CCCOC(=O)[C@H](C)NP(=O)(Cc1ccc2sc(C(=O)N[C@H]3CCCC[C@H]4CC[C@@H](C(=O)N5CCC(c6cccnc6)C5)N4C3=O)cc2c1)Oc1ccccc1 (stereo partly shown) [Compound 253]	6.00 to 7.00
C[C@H](NP(=O)(Cc1ccc2ccc(C(=O)N[C@H]3CCCC[C@H]4CC[C@@H](C(=O)N5CC(c6ccccc6)CC56CC6)N4C3=O)cc2c1)Oc1ccccc1)C(=O)OCc1ccccc1 (stereo partly shown) [Compound 397]	< 5.52
CCCOC(=O)[C@H](C)NP(=O)(Oc1ccccc1)C(F)c1ccc2sc(C(=O)N[C@H]3CCCC[C@H]4CC[C@@H](C(=O)N5C(=O)N(c6cncc(F)c6)C(=O)C56CC6)N4C3=O)cc2c1 (stereo partly shown) [Compound 473]	< 5.52
CCCOC(=O)[C@H](C)NP(=O)(Oc1ccccc1)C(F)c1ccc2sc(C(=O)N[C@H]3CCCC[C@H]4CC[C@@H](C(=O)N5CCC(O)(c6ccn(C)c(=O)c6)C5)N4C3=O)cc2c1 (stereo partly shown) [Compound 466]	< 5.52

Item under review: CCCOC(=O)[C@H](C)NP(=O)(Oc1cccc(OCCOC)c1)[C@@H](F)c1ccc2sc(C(=O)N[C@H]3CCC[C@H]4CC[C@@H](C(=O)N5C[C@@H](c6cccnc6)CC56CC6)N4C3=O)cc2c1 (stereo partly shown) [Compound 357] . Reported pIC50?
> 7.00

Query (compound): C[C@H](NP(=O)(Oc1ccccc1)[C@@H](F)c1ccc2sc(C(=O)N[C@H]3CCCC[C@H]4CC[C@@H](C(=O)N5C[C@@H](c6cccnc6)CC56CC6)N4C3=O)cc2c1)C(=O)OCC1COC1 (stereo partly shown) [Compound 374] ; field requested: pIC50
> 7.00

// pIC50 lookup, key: CCCOC(=O)[C@H](C)NP(=O)(Oc1ccccc1)[C@@H](F)c1ccc2sc(C(=O)N[C@H]3CC[C@H](N4CCC4)C[C@H]4CC[C@@H](C(=O)N5C[C@@H](c6ccccc6)[C@H](C#N)C56CC6)N4C3=O)cc2c1 (stereo partly shown) [Compound 489]
6.00 to 7.00

Return reported pIC50; argument: CCCOC(=O)[C@H](C)NP(=O)(Oc1ccccc1)[C@@H](F)c1ccc2sc(C(=O)N[C@H]3CCCC[C@H]4CC[C@@H](C(=O)N5C(=O)N(c6cncc(OC)c6)C(=O)C56CC6)N4C3=O)cc2c1 (stereo partly shown) [Compound 331]
5.52 to 6.00

Consider the compound COc1ccncc1C1CN(C(=O)[C@@H]2CC[C@@H]3CCC[C@H](NC(=O)c4cc5cc([C@@H](F)[P@](=O)(N[C@@H](C)C(=O)OCc6ccccc6)Oc6ccccc6)ccc5s4)C(=O)N32)C1 (single isomer, unassigned) [Compound 1055] and give its measured pIC50.
< 5.52

What value of pIC50 has been reported for the following compound? CCCOC(=O)[C@H](C)NP(=O)(Oc1ccccc1)C(F)c1ccc2sc(C(=O)N[C@H]3CCCC[C@H]4CC[C@@H](C(=O)N5CC(c6cccnc6)CC56CC6)N4C3=O)cc2c1 (stereo partly shown) [Compound 448]
> 7.00

Look up pIC50 for this compound: CCCOC(=O)[C@@H]1CCN1P(=O)(Oc1ccccc1)[C@H](F)c1ccc2sc(C(=O)N[C@H]3CCC[C@H]4CC[C@@H](C(=O)N5C[C@H](c6ccccc6)[C@@H](C#N)C56CC6)N4C3=O)cc2c1 (stereo partly shown) [Compound 488]
5.52 to 6.00

Please look up its pIC50: CCC(CC)COC(=O)[C@H](C)NP(=O)(Oc1ccccc1)[C@@H](F)c1ccc2sc(C(=O)N[C@H]3CCCC[C@H]4CC[C@@H](C(=O)N5C[C@@H](c6cccnc6)CC56CC6)N4C3=O)cc2c1 (stereo partly shown) [Compound 471]
> 7.00

# pIC50 lookup, item C[C@H](NP(=O)(Oc1ccccc1)[C@@H](F)c1ccc2sc(C(=O)N[C@H]3CCCC[C@H]4CC[C@@H](C(=O)N5C[C@@H](c6cccnc6)CC56CC6)N4C3=O)cc2c1)C(=O)OC1CC1 (stereo partly shown) [Compound 418]
> 7.00

For the compound CC(C)COC(=O)[C@H](C)NP(=O)(Cc1ccc2ccc(C(=O)N[C@H]3CCCC[C@H]4CC[C@@H](C(=O)N5CC(c6ccccc6)CC56CC6)N4C3=O)cc2c1)Oc1ccccc1 (stereo partly shown) [Compound 410] , what pIC50 is on record?
< 5.52

----------
tgt: pY641-STAT6 in PBMC (Homo sapiens, UniProt P42226)
Construct: Cryopreserved Peripheral Blood Mononuclear Cells (PBMC) are from AllCells; host or cells: cryopreserved PBMC
Sequence (P42226 1-847): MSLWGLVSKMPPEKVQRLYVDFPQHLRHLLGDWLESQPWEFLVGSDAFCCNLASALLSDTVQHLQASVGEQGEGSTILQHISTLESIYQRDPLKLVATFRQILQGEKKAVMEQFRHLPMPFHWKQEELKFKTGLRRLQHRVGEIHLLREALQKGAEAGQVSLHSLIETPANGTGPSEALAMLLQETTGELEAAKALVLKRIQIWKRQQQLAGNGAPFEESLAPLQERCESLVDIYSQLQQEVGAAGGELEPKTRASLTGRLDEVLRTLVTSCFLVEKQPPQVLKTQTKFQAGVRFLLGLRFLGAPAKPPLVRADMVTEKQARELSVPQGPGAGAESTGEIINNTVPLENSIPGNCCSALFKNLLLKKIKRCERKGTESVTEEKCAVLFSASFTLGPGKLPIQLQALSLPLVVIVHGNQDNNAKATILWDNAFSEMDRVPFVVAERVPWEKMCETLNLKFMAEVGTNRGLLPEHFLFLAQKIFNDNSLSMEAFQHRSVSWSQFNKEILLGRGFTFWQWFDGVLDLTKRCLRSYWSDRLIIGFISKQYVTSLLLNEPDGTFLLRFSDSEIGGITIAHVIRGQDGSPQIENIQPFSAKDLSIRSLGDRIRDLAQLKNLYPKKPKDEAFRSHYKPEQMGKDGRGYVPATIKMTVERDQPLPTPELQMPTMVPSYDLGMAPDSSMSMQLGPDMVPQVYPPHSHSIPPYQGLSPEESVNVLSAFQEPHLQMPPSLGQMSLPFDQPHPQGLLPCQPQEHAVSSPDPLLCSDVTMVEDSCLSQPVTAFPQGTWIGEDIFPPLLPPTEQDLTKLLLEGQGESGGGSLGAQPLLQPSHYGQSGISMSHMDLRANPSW
experimentalDetails: MSD-pSTAT-PBMC Assay (pSTAT6, IL-4 stimulated)
Format: cell-based
assayConditions: PBMC, compound 3 hrs, then 1 ng/mL IL-4 for 10 min; Table 115; read-out: STAT6
pIC50: −log10 of the molar value.
valueKind: pIC50

The following compounds have reported results that may help.
CC(C)CC(=O)SCCOP(=O)(OCCSC(=O)CC(C)C)C(F)(F)c1ccc2ccc(C(=O)N[C@H]3CCCC[C@H]4CC[C@@H](C(=O)N5CC(c6ccccc6)CC56CC6)N4C3=O)cc2c1 (some centres unmarked)	> 7.00
CC(C)CC(=O)SCCOP(=O)(OCOC(=O)OC(C)C)C(F)(F)c1ccc2ccc(C(=O)N[C@H]3CCCC[C@H]4CC[C@@H](C(=O)N5C[C@H](c6cc[nH]c(=O)c6)[C@@H](C#N)C5)N4C3=O)cc2c1 (single isomer, unassigned)	> 7.00
N#C[C@H]1CN(C(=O)[C@@H]2CC[C@@H]3CCCC[C@H](NC(=O)c4ccc5ccc(C(F)(F)P(=O)(OCCSC(=O)CC6COC6)OCCSC(=O)CC6COC6)cc5c4)C(=O)N32)C[C@@H]1c1cc[nH]c(=O)c1 (single isomer, unassigned)	6.00 to 7.00
CCCOC(=O)[C@H](C)NP(=O)(Oc1ccccc1)[C@@H](F)c1ccc2sc(C(=O)N[C@H]3CCCC[C@H]4CC[C@@H](C(=O)N5C[C@H](c6cccnc6)[C@@H](C#N)C56CC6)N4C3=O)cc2c1 (some centres unmarked) [Compound 365]	> 7.00
CC(C)CC(=O)SCCOP(=O)(OCCSC(=O)CC(C)C)C(F)(F)c1ccc2ccc(C(=O)N[C@H]3CCCC[C@H]4CC[C@@H](C(=O)N5CC(n6ccnn6)[C@H](O)C5)N4C3=O)cc2c1 (relative stereo)	6.00 to 7.00
CC(C)CC(=O)SCCOP(=O)(OCCSC(=O)CC(C)C)C(F)(F)c1ccc2ccc(C(=O)N[C@H]3CCCC[C@H]4CC[C@@H](C(=O)N5CC(c6cc[nH]c(=O)c6)CC56CC6)N4C3=O)cc2c1 (some centres unmarked)	> 7.00
CC(C)OC(=O)OCOP(=O)(OCOC(=O)OC(C)C)C(F)(F)c1ccc2ccc(C(=O)N[C@H]3CCCC[C@H]4CC[C@@H](C(=O)N5C[C@@H](C#N)[C@H](c6cc[nH]c(=O)c6)C5)N4C3=O)cc2c1 (single isomer, unassigned)	> 7.00

# input for lookup
What value of measured pIC50 is listed for CC(C)(C)C(=O)SCCOP(=O)(OCCSC(=O)C(C)(C)C)C(F)(F)c1ccc2sc(C(=O)N[C@H]3CCC[C@H]4CC[C@@H](C(=O)N5C[C@H](c6ccccc6)[C@@H](C#N)C56CC6)N4C3=O)cc2c1 (single isomer, unassigned) ?
> 7.00
